# credit: the supplement of paper PMC10567573

B1: C8orf76 (parent)
chain: LYLQLAICSSLQNLEKTIFCLQKL

# Variants of: B1
# METHOD: protein stability index of a GFP-peptide fusion (GPS, HEK-293T) (PSI 1-6); higher = more stable;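 also: lentivirally expressed fusions sorted by FACS into six bins by GFP to DsRed ratio, PSI derived from sequencing read proportions per bin multiplied by bin number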
# EXPERIMENTAL CONDITIONS: c terminus: a fixed tail appended
Each entry below carries its recorded protein stability index.
QUANTITY NAME: protein stability index

   change  result
0     Q4A    1.92
1    K23S    1.89
2     Y2F     2.5
3     Y2H    3.59
4    Q22M    3.12
5    C20I    2.15
6    Q22F     3.5
7     Q4K    2.11
8     L5P    2.23
